Reference source for all entries: patent US20160272977

- System Name: DNMT1 full-length (Homo sapiens, UniProt P26358 SEQ:1-1616)
- Sequence (P26358 whole entry): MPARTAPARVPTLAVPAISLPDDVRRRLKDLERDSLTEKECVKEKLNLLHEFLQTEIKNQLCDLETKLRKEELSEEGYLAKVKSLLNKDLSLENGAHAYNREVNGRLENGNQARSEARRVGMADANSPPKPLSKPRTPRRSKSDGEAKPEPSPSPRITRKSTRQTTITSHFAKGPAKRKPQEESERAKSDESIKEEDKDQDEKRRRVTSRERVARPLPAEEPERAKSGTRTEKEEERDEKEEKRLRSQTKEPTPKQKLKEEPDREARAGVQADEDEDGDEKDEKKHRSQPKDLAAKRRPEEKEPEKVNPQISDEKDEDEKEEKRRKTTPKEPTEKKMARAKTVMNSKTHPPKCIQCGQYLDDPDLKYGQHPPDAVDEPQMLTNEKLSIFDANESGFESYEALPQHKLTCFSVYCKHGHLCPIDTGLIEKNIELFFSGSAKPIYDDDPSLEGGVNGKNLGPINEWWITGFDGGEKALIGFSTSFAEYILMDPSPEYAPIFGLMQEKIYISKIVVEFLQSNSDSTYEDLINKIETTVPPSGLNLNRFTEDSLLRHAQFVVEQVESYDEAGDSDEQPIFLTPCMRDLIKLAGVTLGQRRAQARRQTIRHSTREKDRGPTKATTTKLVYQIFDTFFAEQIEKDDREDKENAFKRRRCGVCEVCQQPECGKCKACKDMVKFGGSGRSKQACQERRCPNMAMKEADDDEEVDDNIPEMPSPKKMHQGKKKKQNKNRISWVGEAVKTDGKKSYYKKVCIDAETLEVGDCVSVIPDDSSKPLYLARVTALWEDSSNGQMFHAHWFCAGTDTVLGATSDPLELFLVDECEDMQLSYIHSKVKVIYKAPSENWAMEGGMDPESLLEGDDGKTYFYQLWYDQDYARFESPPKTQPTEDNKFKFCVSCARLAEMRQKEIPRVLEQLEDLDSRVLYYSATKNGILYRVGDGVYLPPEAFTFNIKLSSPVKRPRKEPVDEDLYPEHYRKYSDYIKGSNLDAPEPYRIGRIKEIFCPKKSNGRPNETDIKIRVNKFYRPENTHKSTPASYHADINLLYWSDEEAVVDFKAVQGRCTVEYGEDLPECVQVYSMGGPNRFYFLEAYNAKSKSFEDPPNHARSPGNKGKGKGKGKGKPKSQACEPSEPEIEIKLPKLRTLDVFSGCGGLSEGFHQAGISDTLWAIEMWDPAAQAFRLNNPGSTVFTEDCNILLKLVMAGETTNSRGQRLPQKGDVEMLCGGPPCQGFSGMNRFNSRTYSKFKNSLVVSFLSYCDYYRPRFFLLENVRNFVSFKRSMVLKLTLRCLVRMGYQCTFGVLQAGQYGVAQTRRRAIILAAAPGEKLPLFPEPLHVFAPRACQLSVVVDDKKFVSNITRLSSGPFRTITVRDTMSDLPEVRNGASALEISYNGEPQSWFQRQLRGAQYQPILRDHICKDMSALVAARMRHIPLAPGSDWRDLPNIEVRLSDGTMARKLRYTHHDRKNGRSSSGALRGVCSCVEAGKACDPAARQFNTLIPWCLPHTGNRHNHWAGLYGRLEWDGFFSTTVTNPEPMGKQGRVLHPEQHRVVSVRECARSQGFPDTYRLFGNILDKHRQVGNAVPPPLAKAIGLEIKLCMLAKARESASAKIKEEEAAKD
- Experimental Protocol: inhibition; mixed inhibition vs AdoMet
- Details: tags: baculovirus Sf9; label: 5'-33P in pull-down; stem-loop

Binder: GCCAGUGGCGAGGGGCGGCGCGG (ssRNA) [asCEBPα-2]
Unit Abbrev: nM
Ki: 91.7
